# tested-system: rat GLP-1 receptor (rat) (UniProt P32301)
# Sequence (P32301 22-463): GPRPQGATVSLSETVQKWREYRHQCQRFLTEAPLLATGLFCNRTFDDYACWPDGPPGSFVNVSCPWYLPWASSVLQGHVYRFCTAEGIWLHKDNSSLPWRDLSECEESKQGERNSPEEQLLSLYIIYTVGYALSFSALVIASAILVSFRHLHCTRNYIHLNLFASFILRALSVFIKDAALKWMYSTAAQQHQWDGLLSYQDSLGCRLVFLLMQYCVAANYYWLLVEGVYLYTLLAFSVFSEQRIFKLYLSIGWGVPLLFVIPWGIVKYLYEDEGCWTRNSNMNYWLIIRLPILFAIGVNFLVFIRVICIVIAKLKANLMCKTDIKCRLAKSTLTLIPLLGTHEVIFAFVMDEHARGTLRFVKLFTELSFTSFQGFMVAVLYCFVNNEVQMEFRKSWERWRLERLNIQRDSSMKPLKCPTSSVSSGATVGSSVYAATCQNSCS
# procedure-text: cell-based or functional assay
assay-endpoint: cAMP EC50 (nM)

binder | cAMP EC50 [nM]
IP329 (Fc fusion) YSEGTFTSDYSKLLERQAIDEFIAELLKGGGGGGGSGGGGSGGGGSGGGGSGGGGSGGGGSA | 0.18
IP332 (Fc fusion) YSEGTFTSDYSIALAAAAQQDFVNWLLAGGGGGGGSGGGGSGGGGSGGGGSGGGGSGGGGSA | 50
IP331 (Fc fusion) YSEGTFTSDYSKLLERQAIDEFIADLLKGGGGGGGSGGGGSGGGGSGGGGSGGGGSGGGGSA | 0.31
IP333 (Fc fusion) YSEGTFISDYSIALAAAAQQDFVNWLLKGGGGGGGSGGGGSGGGGSGGGGSGGGGSGGGGSA | 430
IP349 (Fc fusion) YSEGTFTSDYSKLLERQAIDEFIANLLKGGGGGGGSGGGGSGGGGSGGGGSGGGGSGGGGSA | 0.059

(A) IP307 (Fc fusion) YSEGTFTSDVSSYMERQAIDEFIAWLLKQGAAAGGSGSTASSGSGSATGGGGAATHTCPPC
(B) IP375 (Fc fusion) YSEGTHTSLFSKLLERQAIDEFIAWLLKGGAAAGGSGSTASSGSGSATGGGGAATHTCPPC
(C) IP387 (Fc fusion) YSEGTFISDYSIAMDKIHQQDFVNWLLAQKGGGGGSGGGGSGGGGSGGGGSGGGGSGGGGSGGGGSGGGGSACPPC
Request: Order the entries by their reported cAMP EC50, beginning at the minimum. The response must list the labels following the requested ordering.
Result: A, B, C
(A: 0.21 nM, B: 3.9 nM, C: 110 nM)

(A) IP364 (Fc fusion) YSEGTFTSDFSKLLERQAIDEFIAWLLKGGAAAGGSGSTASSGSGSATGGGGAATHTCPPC
(B) IP314 (Fc fusion) YSEGTFISDYSKLLAAAAVRDFVNWLLAGGGGGGGSGGGGSGGGGSGGGGSATHTCPPC
Request: For the pair A and B , which entry has the numerically smaller recorded cAMP EC50? Write down the label of the entry you select.
Result: A
